Hey, just so you know, these numbers are from patent USRE46943E1.

# System: transformed human keratinocyte cell line (FEP 1811)
# Assay Details: Clonogenic survival cell culture assay for radioprotective activity (12 Gy 137Cs gamma irradiation)
# Format: cell-based
# Condition Summary: 12 Gy; survival at maximum protection vs irradiation only
Assay Endpoint: PF (protection factor = Sm/So)

• Cc1ccc(-c2nc3ccc(-c4nc5ccc(N6CCC(O)CC6)cc5[nH]4)cc3[nH]2)nc1 [Example 51] = 58.7
• CN(C)Nc1ccc2[nH]c(-c3ccc4[nH]c(-c5ccccn5)nc4c3)nc2c1 [Example 46] = 27.9
• CN1CCN(c2ccc3[nH]c(-c4ccc5[nH]c(-c6ccc7ccccc7n6)nc5c4)nc3c2)CC1 [Example 13] = 11.0
• CN1CCN(c2ccc3nc(-c4ccc5nc(-c6nccc7ccccc67)[nH]c5c4)[nH]c3c2)CC1 [Example 15] = 36.9
• CN(C)C1CCN(c2ccc3nc(-c4ccc5nc(-c6ccccn6)[nH]c5c4)[nH]c3c2)CC1 [Example 29] = 18.2
• CN1CCN(c2ccc3nc(-c4ccc5nc(-c6ccc(C(F)(F)F)cn6)[nH]c5c4)[nH]c3c2)CC1 [Example 49] = 33.1
• COCCN1CCN(c2ccc3nc(-c4ccc5nc(-c6ccccn6)[nH]c5c4)[nH]c3c2)CC1 [Example 40] = 20.2
• Cc1ccnc(-c2nc3ccc(-c4nc5ccc(N6CCN(C)CC6)cc5[nH]4)cc3[nH]2)c1 [Example 7] = 183.8
• c1ccc2cc(-c3nc4ccc(-c5nc6ccc(N7CCOCC7)cc6[nH]5)cc4[nH]3)ncc2c1 [Example 20] = 11.4
• OC1CCCN(c2ccc3nc(-c4ccc5nc(-c6ccccn6)[nH]c5c4)[nH]c3c2)C1 (centres unmarked) [Example 26] = 14.7
• CNc1ccnc(-c2nc3ccc(-c4nc5ccc(N6CCN(C)CC6)cc5[nH]4)cc3[nH]2)c1 [Example 9] = 7.1
• c1ccc(-c2nc3ccc(-c4nc5ccc(NN6CCOCC6)cc5[nH]4)cc3[nH]2)nc1 [Example 42] = 17.8
• Cc1ccnc(-c2nc3ccc(-c4nc5ccc(N6CCC(O)CC6)cc5[nH]4)cc3[nH]2)c1 [Example 50] = 23.5
• COCCOCCNc1ccc2nc(-c3ccc4nc(-c5ccccn5)[nH]c4c3)[nH]c2c1 [Example 39] = 171.5
• CN(C)CCNc1ccc2[nH]c(-c3ccc4[nH]c(-c5ccccn5)nc4c3)nc2c1 [Example 43] = 11.2
• CN1CCN(c2ccc3nc(-c4ccc5nc(-c6ccco6)[nH]c5c4)[nH]c3c2)CC1 [Example 1] = 7.7
• CN1CCN(c2ccc3[nH]c(-c4ccc5[nH]c(-c6nn(C)c7ccccc67)nc5c4)nc3c2)CC1 [Example 17] = 10.9

---

Assay Endpoint: melting point

* CN1CCN(c2ccc3nc(-c4ccc5nc(-c6cc(Cl)ccn6)[nH]c5c4)[nH]c3c2)CC1 [Example 8] | 195 °C (dec.)
* OC1CCCN(c2ccc3nc(-c4ccc5nc(-c6ccccn6)[nH]c5c4)[nH]c3c2)C1 (centres unmarked) [Example 26] | 278 to 282 °C
* c1ccc(-c2nc3ccc(-c4nc5ccc(N6CCCCC6)cc5[nH]4)cc3[nH]2)nc1 [Example 24] | 196 to 203 °C
* Cc1ccnc(-c2nc3ccc(-c4nc5ccc(N6CCC(O)CC6)cc5[nH]4)cc3[nH]2)c1 [Example 50] | 204 to 209 °C
* CN1CCN(c2ccc3nc(-c4ccc5nc(-c6ncccc6F)[nH]c5c4)[nH]c3c2)CC1 [Example 3] | 201 to 214 °C
* COCCOCCNc1ccc2nc(-c3ccc4nc(-c5ccccn5)[nH]c4c3)[nH]c2c1 [Example 39] | 183 to 186 °C
* Cc1ccnc(-c2nc3ccc(-c4nc5ccc(N6CCOCC6)cc5[nH]4)cc3[nH]2)c1 [Example 21] | 214 to 230 °C
* CN1CCCN(c2ccc3nc(-c4ccc5nc(-c6ccccn6)[nH]c5c4)[nH]c3c2)CC1 [Example 25] | 185 °C (dec.)
* Cc1ccnc(-c2nc3ccc(-c4nc5ccc(N6CCN(C)CC6)cc5[nH]4)cc3[nH]2)c1 [Example 7] | 200 °C (dec.)
* OC1CCN(c2ccc3nc(-c4ccc5nc(-c6cc7ccccc7cn6)[nH]c5c4)[nH]c3c2)CC1 [Example 23] | 222 °C (dec.)
* CN1CCN(c2ccc3nc(-c4ccc5nc(-c6ccco6)[nH]c5c4)[nH]c3c2)CC1 [Example 1] | 202 to 224 °C (dec.)
* CN1CCN(c2ccc3nc(-c4ccc5nc(-c6n[nH]c7ccccc67)[nH]c5c4)[nH]c3c2)CC1 [Example 16] | 235 °C (dec.)
* CN1CCN(c2ccc3nc(-c4ccc5nc(-c6nccc7ccccc67)[nH]c5c4)[nH]c3c2)CC1 [Example 15] | 214 to 217 °C
* CN(C)C1CCN(c2ccc3nc(-c4ccc5nc(-c6ccccn6)[nH]c5c4)[nH]c3c2)CC1 [Example 29] | 198 to 205 °C
* OC1CCN(c2ccc3nc(-c4ccc5nc(-c6ccccn6)[nH]c5c4)[nH]c3c2)CC1 [Example 22] | 226 to 229 °C
* COc1cc(-c2nc3cc(N4CCN(C)CC4)ccc3[nH]2)cc2nc(-c3ccccn3)[nH]c12 [Example 30] | 200 °C (dec.)
* COc1cc2nc(-c3ccccn3)[nH]c2cc1-c1nc2ccc(N3CCN(C)CC3)cc2[nH]1 [Example 32] | 190 to 195 °C
* CN1CCN(c2ccc3nc(-c4ccc5nc(-c6cc(C(F)(F)F)ccn6)[nH]c5c4)[nH]c3c2)CC1 [Example 48] | 203 to 208 °C
* CN(C)c1ccc2nc(-c3ccc4nc(-c5ccccn5)[nH]c4c3)[nH]c2c1 [Example 28] | 180 °C (dec.)
* c1ccc(-c2nc3ccc(-c4nc5ccc(NN6CCOCC6)cc5[nH]4)cc3[nH]2)nc1 [Example 42] | 198 to 205 °C
* OCCN1CCN(c2ccc3nc(-c4ccc5nc(-c6ccccn6)[nH]c5c4)[nH]c3c2)CC1 [Example 41] | 218 to 221 °C
* CN1CCN(c2ccc3nc(-c4ccc5nc(-c6cc(N(C)C)ccn6)[nH]c5c4)[nH]c3c2)CC1 [Example 10] | 216 to 220 °C
* Cc1ccc(-c2nc3ccc(-c4nc5ccc(N6CCC(O)CC6)cc5[nH]4)cc3[nH]2)nc1 [Example 51] | 208 to 213 °C
* COCCN(C)c1ccc2[nH]c(-c3ccc4[nH]c(-c5ccccn5)nc4c3)nc2c1 [Example 38] | 150 to 155 °C
* CN1CCN(c2ccc3nc(-c4ccc5nc(-c6cnccn6)[nH]c5c4)[nH]c3c2)CC1 [Example 12] | 175 °C (dec.)
* CN1CCN(c2ccc3nc(-c4ccc5nc(-c6cc7ccccc7cn6)[nH]c5c4)[nH]c3c2)CC1 [Example 14] | 224 to 229 °C
